tested.on: T1, P3SHb
T1 chain: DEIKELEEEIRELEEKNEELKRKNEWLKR
experimental.protocol: two-hybrid library CCNG1;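 further: natural log of median RNA to DNA barcode read ratio; higher means stronger binding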
measurement.type: interaction score

> print(dat)
                                   binder   measurement.type  number
1   DEIKELEEEIRELEEKNEELKRKNEWLKR [P3SHb]  interaction score   0.389
2   DKIEELKRKNRELKEKNKELKEKIYRLKE [P2SHb]  interaction score  -0.091
3  DKNEELKRENEELERKIERLKEKIRYLKE [P10SHb]  interaction score   -1.86

1: DEIERLERENEKLERENERLEREIRWLEE [P1SHb]
2: DKNRELKEKIERLKEKIRELKEENRYLEE [P12SHb]
3: DENEKLEREIRELEREIEKLEKKNRYLKE [P11SHb]
// smallest interaction score at index 0, largest at the end List labels; respect the requested ordering.
1, 3, 2

These measurements were taken from paper PMC10397247.
